From: ChEMBL document CHEMBL5724914

CONDITION: human gut metagenome, 24 h, 2 µM; also: call rule not given here
ENDPOINT_LABEL: Bacterial Biotransformation

COMPOUND	Bacterial Biotransformation
CC1=C(CC(=O)O)c2cc(F)ccc2/C1=C\c1ccc([S+](C)[O-])cc1 (stereo unspecified)	Compound NOT metabolized
N=C(N)NC(=O)Cc1c(Cl)cccc1Cl [GUANFACINE]	Compound NOT metabolized
CCOc1ccc2nc(S(N)(=O)=O)sc2c1 [ETHOXZOLAMIDE]	Compound NOT metabolized
CC(=O)OCC(=O)[C@@]1(OC(C)=O)[C@@H](C)C[C@H]2[C@@H]3C[C@H](F)C4=CC(=O)C=C[C@]4(C)[C@@]3(F)[C@@H](O)C[C@@]21C [DIFLORASONE DIACETATE]	Compound metabolized
CC(C)(C)NCC(O)c1cc(Cl)c(N)c(Cl)c1 (stereo unspecified) [CLENBUTEROL]	Compound NOT metabolized

Exercise: What measured Bacterial Biotransformation goes with CN[C@H]1CC[C@@H](c2ccc(Cl)c(Cl)c2)c2ccccc21 [SERTRALINE] ?
Solution: Compound NOT metabolized

Exercise: Another compound: C[C@]12CCC(=O)C=C1[C@@H]1C[C@@H]1[C@H]1[C@@H]3[C@@H]4C[C@@H]4[C@@]4(CCC(=O)O4)[C@@]3(C)CC[C@@H]12 [DROSPIRENONE]
Solution: Compound NOT metabolized

----------
CONDITION: human gut metagenome, 24 h, 2 µM
ENDPOINT_LABEL: Bacterial Biotransformation

Look over these answered cases.
MOLECULE	ENDPOINT_LABEL	TEST_VALUE
CN(C)CCc1c[nH]c2ccc(CS(=O)(=O)N3CCCC3)cc12 [ALMOTRIPTAN]	Bacterial Biotransformation	Compound NOT metabolized
CCN(CC)C(=O)C1(c2ccccc2)CC1CN (stereo not given)	Bacterial Biotransformation	Compound NOT metabolized
CN1CCC[C@@H]1CCO[C@](C)(c1ccccc1)c1ccc(Cl)cc1.O=C(O)/C=C/C(=O)O [CLEMASTINE FUMARATE]	Bacterial Biotransformation	Compound metabolized
COC(=O)[C@H](c1ccccc1Cl)N1CCc2sccc2C1.O=S(=O)(O)O [CLOPIDOGREL BISULFATE]	Bacterial Biotransformation	Compound metabolized
CCOc1ccc2nc(S(N)(=O)=O)sc2c1 [ETHOXZOLAMIDE]	Bacterial Biotransformation	Compound NOT metabolized
O=C(CCCN1CCC2(CC1)C(=O)NCN2c1ccccc1)c1ccc(F)cc1 [SPIPERONE]	Bacterial Biotransformation	Compound metabolized
Nc1nc(N)nc(-c2cc(Cl)ccc2Cl)n1.O=C(O)/C=C\C(=O)O [IRSOGLADINE MALEATE]	Bacterial Biotransformation	Compound NOT metabolized
N=C(N)NC(=O)Cc1c(Cl)cccc1Cl [GUANFACINE]	Bacterial Biotransformation	Compound NOT metabolized

Exercise: Can you share its Bacterial Biotransformation? I mean this molecule: COc1ccc2cc([C@H](C)C(=O)O)ccc2c1 [NAPROXEN]
Solution: Compound metabolized

Exercise: And the next one, CCN(CC)CCOC(=O)C1(C2CCCCC2)CCCCC1 [DICYCLOMINE] ?
Solution: Compound metabolized

Exercise: Then what about the molecule CC(CCc1ccccc1)NCC(O)c1ccc(O)c(C(N)=O)c1 (stereo not given) [LABETALOL] ?
Solution: Compound NOT metabolized

Exercise: What do you have for COc1cc2nc(N3CCN(C(=O)C4CCCO4)CC3)nc(N)c2cc1OC (stereo not given) [TERAZOSIN] ?
Solution: Compound metabolized

----------
ASSAY_EXPLANATION: The drug is tested on WLS-082 corresponding to human gut metagenome with ENA study accession number: PRJEB37062 and ENA sample accession number: ERS12561751 for biotransformation under anaerobic condition. The drug concentrations were measured over 9 timepoints collected between 0 and 24 hours of incubation by liquid-chromatography-coupled mass spectrometry (LC–MS)
CONDITION: 2 µM
ENDPOINT_LABEL: Bacterial Biotransformation

Please review the entries below; each comes with its answer.
COMPOUND	TEST_VALUE
OCCN(CCO)c1nc(N2CCCCC2)c2nc(N(CCO)CCO)nc(N3CCCCC3)c2n1	Compound NOT metabolized
CCCCCNC(=N)N/N=C/c1c[nH]c2ccc(OC)cc12.O=C(O)/C=C\C(=O)O [TEGASEROD MALEATE]	Compound metabolized
CNCC[C@H](Oc1cccc2ccccc12)c1cccs1	Compound NOT metabolized
O=C1CC2(CCCC2)CC(=O)N1CCCCN1CCN(c2ncccn2)CC1	Compound NOT metabolized
CCN(CC)CCNC(=O)c1ccc(NC(C)=O)cc1 [ACECAINIDE]	Compound NOT metabolized
COC1=C(OC)C(=O)C(CCCCCCCCCCO)=C(C)C1=O	Compound metabolized

Exercise: Name the recorded Bacterial Biotransformation for CN1CCN(C2=Nc3ccccc3Oc3ccc(Cl)cc32)CC1.O=C(O)CCC(=O)O [LOXAPINE SUCCINATE] .
Solution: Compound NOT metabolized

Exercise: // same read-out, input: O=C1CN2Cc3c(ccc(Cl)c3Cl)N=C2N1 [ANAGRELIDE]
Solution: Compound metabolized

Exercise: Here is the next compound: "CCS(=O)(=O)CCn1c([N+](=O)[O-])cnc1C"
Solution: Compound metabolized

Exercise: Also check CCOc1ccccc1OCCN[C@H](C)Cc1ccc(OC)c(S(N)(=O)=O)c1.Cl [TAMSULOSIN HYDROCHLORIDE]
Solution: Compound NOT metabolized

Exercise: How about COCCCC/C(=N\OCCN)c1ccc(C(F)(F)F)cc1.O=C(O)/C=C\C(=O)O [FLUVOXAMINE MALEATE] ?
Solution: Compound NOT metabolized

Exercise: "CC[C@H](C)C(=O)O[C@H]1CCC=C2C=C[C@H](C)[C@H](CC[C@@H]3C[C@@H](O)CC(=O)O3)[C@H]21" , same question.
Solution: Compound metabolized

Exercise: Then what about the compound C=C[C@H]1CN2CC[C@H]1C[C@H]2[C@H](O)c1ccnc2ccc(OC)cc12.C=C[C@H]1CN2CC[C@H]1C[C@H]2[C@H](O)c1ccnc2ccc(OC)cc12.O.O.O=S(=O)(O)O [QUININE SULFATE] ?
Solution: Compound NOT metabolized

Exercise: Also need "O=C(CCCN1CCC2(CC1)C(=O)NCN2c1ccccc1)c1ccc(F)cc1" , thanks.
Solution: Compound NOT metabolized

Exercise: Follow-up entry: CN(C)CCOC(C)(c1ccccc1)c1ccccn1.O=C(O)CCC(=O)O (stereo not given) [DOXYLAMINE SUCCINATE]
Solution: Compound NOT metabolized

Exercise: Quick one: C#C[C@]1(OC(C)=O)CC[C@H]2[C@@H]3CCC4=C/C(=N/O)CC[C@@H]4[C@H]3CC[C@@]21CC [NORGESTIMATE]
Solution: Compound metabolized

----------
CONDITION: human gut metagenome, 24 h, 2 µM
ENDPOINT_LABEL: Bacterial Biotransformation

Solved cases below.
COMPOUND	Bacterial Biotransformation
CC#CCn1c(N2CCC[C@@H](N)C2)nc2c1c(=O)n(Cc1nc(C)c3ccccc3n1)c(=O)n2C [LINAGLIPTIN]	Compound NOT metabolized
Clc1cccc(Cl)c1N=C1NCCN1 [CLONIDINE]	Compound NOT metabolized
CN1CCC(=C2c3ccccc3CC(=O)c3sccc32)CC1.O=C(O)/C=C/C(=O)O [KETOTIFEN FUMARATE]	Compound NOT metabolized
CC(CCc1ccccc1)NCC(O)c1ccc(O)c(C(N)=O)c1 (configuration not stated) [LABETALOL]	Compound NOT metabolized
O=C1CN2Cc3c(ccc(Cl)c3Cl)N=C2N1 [ANAGRELIDE]	Compound metabolized
C#C[C@]1(OC(C)=O)CC[C@H]2[C@@H]3CCC4=C/C(=N/O)CC[C@@H]4[C@H]3CC[C@@]21CC [NORGESTIMATE]	Compound metabolized

Exercise: # input compound: CC[C@H](C)C(=O)O[C@H]1CCC=C2C=C[C@H](C)[C@H](CC[C@@H]3C[C@@H](O)CC(=O)O3)[C@H]21 [MEVASTATIN] ; wanted: its Bacterial Biotransformation
Solution: Compound NOT metabolized

----------
CONDITION: human gut metagenome, 24 h, 2 µM
ENDPOINT_LABEL: Bacterial Biotransformation

Worked cases, Bacterial Biotransformation given:
COMPOUND	TEST_VALUE
CN(C)C(=O)Oc1cccc([N+](C)(C)C)c1.[Br-] [NEOSTIGMINE BROMIDE]	Compound NOT metabolized
CN1CCN(C2=Nc3ccccc3Oc3ccc(Cl)cc32)CC1.O=C(O)CCC(=O)O [LOXAPINE SUCCINATE]	Compound NOT metabolized
CCCN(CCC)CCc1cccc2c1CC(=O)N2 [ROPINIROLE]	Compound NOT metabolized
C=CC[C@@H]1/C=C(\C)C[C@H](C)C[C@H](OC)[C@H]2O[C@@](O)(C(=O)C(=O)N3CCCC[C@H]3C(=O)O[C@H](/C(C)=C/[C@@H]3CC[C@@H](O)[C@H](OC)C3)[C@H](C)[C@@H](O)CC1=O)[C@H](C)C[C@@H]2OC.O [TACROLIMUS]	Compound metabolized

Exercise: Requested read-out: Bacterial Biotransformation. Entry: Cc1ccccc1C(OCCN(C)C)c1ccccc1.O=C(O)CC(O)(CC(=O)O)C(=O)O (stereo unspecified) [ORPHENADRINE CITRATE]
Solution: Compound metabolized

Exercise: Proceed to COc1ccnc(C[S+]([O-])c2nc3ccc(OC(F)F)cc3[nH]2)c1OC (stereo unspecified) [PANTOPRAZOLE]
Solution: Compound NOT metabolized
